Sourced from the antibiotic and cytotoxicity screens of Wong et al. (2023)

tested on: HepG2; experiment: cytotoxicity call (relative viability < 0.9); conditions: 10 µM
Among all 39,000 compounds or so, about 3,300 (8.5%) were called active. The sample holds actives, similar compounds and a random draw of the others, so the mix is not that of the screen.
Possible outcomes: 1 (yes) (active), 0 (no) (inactive)

compound=COc1ccc(NC(=O)Nc2ccc3c(c2)[C@H]2C[C@@H](CC(=O)N4CCN(C)CC4)O[C@H](CO)[C@H]2O3)cc1 class="0 (no)"
compound=COCC#Cc1ccc2c(c1)O[C@H](CN(C)C(=O)C1CCCCC1)[C@H](C)CN([C@@H](C)CO)S2(=O)=O class="0 (no)"
compound=C[C@@H]1CN([C@@H](C)CO)C(=O)Cc2cc(NC(=O)Nc3ccc(C(F)(F)F)cc3)ccc2O[C@H]1CN(C)C(=O)Nc1cccc2ccccc12 class="0 (no)"
compound=COc1ccc(S(=O)(=O)N(C)C[C@H]2Oc3ccc(NC(=O)CCCN(C)C)cc3C(=O)N([C@@H](C)CO)C[C@@H]2C)cc1 class="0 (no)"
compound="CC1C2CCC3C4CC=C5CC(N(C)C)CCC5(C)C4CCC32CN1C (stereo not drawn)" class="1 (yes)"
compound=COc1ccc(S(=O)(=O)Nc2ccc3c(c2)C(=O)N([C@@H](C)CO)C[C@@H](C)[C@H](CN(C)C(=O)Nc2c(C)noc2C)OCCCC[C@@H](C)O3)cc1 class="0 (no)"
compound="CC12CCC(O)CC1=CCC1C2CCC2(C)C(c3cccnc3)=CCC12 (stereo not drawn)" class="0 (no)"
compound=COc1cc(CC=Cc2ccccc2)c(OC)cc1O class="0 (no)"
